Assay system: D1 receptor (Rattus norvegicus, UniProt P18901)
Sequence (P18901 whole entry): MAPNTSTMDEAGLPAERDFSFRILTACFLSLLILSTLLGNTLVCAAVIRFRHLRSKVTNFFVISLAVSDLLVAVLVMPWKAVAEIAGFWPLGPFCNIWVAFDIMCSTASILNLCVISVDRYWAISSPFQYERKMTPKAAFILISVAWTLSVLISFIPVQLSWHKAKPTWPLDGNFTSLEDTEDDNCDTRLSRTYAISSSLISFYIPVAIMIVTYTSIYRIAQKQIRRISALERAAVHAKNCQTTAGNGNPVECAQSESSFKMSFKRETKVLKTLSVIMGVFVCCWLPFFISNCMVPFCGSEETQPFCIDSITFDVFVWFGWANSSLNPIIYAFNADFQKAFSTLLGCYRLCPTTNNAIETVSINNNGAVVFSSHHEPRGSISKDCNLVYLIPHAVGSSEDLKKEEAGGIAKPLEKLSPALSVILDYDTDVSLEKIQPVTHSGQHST
Experiment: biochemical
Assay type: binding, rat (Sprague-Dawley)
Experimental setup: [3H]-SCH23390 0.2 nM, rat striated membranes, pH 7.4, 37° C., 20 minutes; read-out: Affinity [K1 (nM)] towards D1 receptor
Where a name gives a salt, the structure may show the parent alone.
Parameter Ki: see the listing below.
Measurement label: Ki (nM)

compound="CCCN(CCCCCCN1CCN(c2ccccc2OC)CC1)[C@H]1CCc2c(ccc(O)c2O)C1 [Compound 3, trihydrochloride]" value_reported=69
compound="CCCN(CCCCCCNCCOc1ccc(S(C)(=O)=O)cc1)[C@H]1CCc2c(ccc(O)c2O)C1.Cl.Cl [Compound 6, dihydrochloride]" value_reported=81
compound="Br.Br.Br.CCCN(CCCCCCN1CCN(Cc2ccc(O)cc2)CC1)[C@H]1CCc2c(ccc(O)c2O)C1 [Compound 15, trihydrobromide]" value_reported=119
compound="CCCN(CCCCCCNCCOc1ccc(O)cc1)[C@H]1CCc2c(ccc(O)c2O)C1.Cl.Cl [Compound 24, dihydrochloride]" value_reported=45
compound="Br.Br.CCCN(CCCCCCNCCCc1ccc(O)cc1)[C@H]1CCc2c(ccc(O)c2O)C1 [Compound 9, dihydrobromide]" value_reported=22
compound="CCCN(CCCCCCOCCc1ccc(O)c(O)c1)[C@H]1CCc2c(ccc(O)c2O)C1.Cl [Compound 25, hydrochloride]" value_reported=130
compound="Br.Br.CCCN(CCCCCCNCCCc1ccccc1O)[C@H]1CCc2c(ccc(O)c2O)C1 [Compound 16, dihydrobromide]" value_reported=178
compound="CCCN(CCCCCCNCCc1ccc2c(c1)OCO2)[C@H]1CCc2c(ccc(O)c2O)C1.Cl.Cl [Compound 2, dihydrochloride]" value_reported=25
compound="Br.Br.CCCN(CCCCCCN1CCc2cc(O)c(O)cc2C1)[C@H]1CCc2c(ccc(O)c2O)C1 [Compound 10, dihydrobromide]" value_reported=117
compound="Br.CCCN(CCCCCCNC(=O)Cc1ccc(O)c(O)c1)[C@H]1CCc2c(ccc(O)c2O)C1 [Compound 34, hydrobromide]" value_reported=356
compound="CCCN(CCCCCCNCCOc1ccccc1[N+](=O)[O-])[C@H]1CCc2c(ccc(O)c2O)C1 [Compound 4, dihydrochloride]" value_reported=78
compound="Br.Br.CCCN(CCCCCCNCCSc1ccc(O)cc1)[C@H]1CCc2c(ccc(O)c2O)C1 [Compound 8, dihydrobromide]" value_reported=23
compound="CCCN(CCCCCCNCCOc1ccc([N+](=O)[O-])cc1)[C@H]1CCc2c(ccc(O)c2O)C1 [Compound 5, dihydrochloride]" value_reported=69
compound="Br.Br.CCCN(CCCCCCNCCCc1ccc(O)c(O)c1)[C@H]1CCc2c(ccc(O)c2O)C1 [Compound 13, dihydrobromide]" value_reported=29
compound="CCCN(CCCCCCNCC1COc2ccccc2O1)[C@H]1CCc2c(ccc(O)c2O)C1 (some centres unmarked) [Compound 1, dihydrochloride]" value_reported=49
compound="CCCN(CCCCCCNCCc1ccccc1OC)[C@H]1CCc2c(ccc(O)c2O)C1.Cl.Cl [Ref. A, dihydrochloride, reference compound]" value_reported=158
compound="CCCN(CCCCCCNC(=O)COc1ccccc1OC)[C@H]1CCc2c(ccc(O)c2O)C1 [Compound 7, hydrochloride]" value_reported=370
